test system: NFS-60; test: Induction of apoptosis in mouse NFS60 cells assessed as early apoptotic cells level at IC50 incubated for 72 hrs by annexin V/propidium iodide staining based flow cytometry (reference value: 0.46%); assay type: functional
Endpoint: Activity (%)

{"columns": ["Compound", "Endpoint", "Recorded value"],
 "data": [
  ["O=C(OC1(C(=O)Nc2ccc([N+](=O)[O-])cc2)CCCCC1)c1ccc([N+](=O)[O-])cc1", "Activity", 2.41],
  ["O=C(Cc1ccccc1)OC1(C(=O)Nc2ccc([N+](=O)[O-])cc2)CCCCC1", "Activity", 5.65],
  ["O=C(OC1(C(=O)Nc2ccc([N+](=O)[O-])cc2)CCCCC1)C(O)c1ccccc1 (centres undefined)", "Activity", 2.12],
  ["COc1cccc2c1C(=O)c1c(O)c3c(c(O)c1C2=O)C[C@@](O)(C(=O)CO)C[C@@H]3O[C@H]1C[C@H](N)[C@H](O)[C@H](C)O1", "Activity", 7.27]
]}

* * *

Item-by-item account of EC100
system: WI-38; assay: Cytotoxicity against human WI38 cells assessed as cell growth inhibition incubated for 72 hrs by MTT assay; type: cell-based; details: human, wi-38, 72 h

{"columns": ["Compound", "EC100 / µM"],
 "data": [
  ["O=C(Nc1ccc([N+](=O)[O-])cc1)C1(O)CCCCC1", 0.53],
  ["O=COC1(C(=O)Nc2ccc([N+](=O)[O-])cc2)CCCCC1", 0.0271],
  ["O=C(OC1(C(=O)Nc2ccc([N+](=O)[O-])cc2)CCCCC1)c1ccc(Br)cc1", 0.0095],
  ["O=C(OC1(C(=O)Nc2ccc([N+](=O)[O-])cc2)CCCCC1)c1ccc(Cl)cc1", 0.1128],
  ["CCOC1(Nc2ccc([N+](=O)[O-])cc2)C(=O)c2ccccc2C1=O", 0.0285],
  ["O=C(OC1(C(=O)Nc2ccc([N+](=O)[O-])cc2)CCCCC1)c1ccc([N+](=O)[O-])cc1", 0.149],
  ["O=C1OC2(CCCCC2)C(=O)N1c1ccc([N+](=O)[O-])cc1", 0.006],
  ["O=C(OC1(C(=O)Nc2ccc([N+](=O)[O-])cc2)CCCCC1)C(O)c1ccccc1 (stereo not given)", 0.0507],
  ["Cc1ccccc1C(=O)OC1(C(=O)Nc2ccc([N+](=O)[O-])cc2)CCCCC1", 0.018],
  ["CC(=O)OC1(C(=O)Nc2ccc([N+](=O)[O-])cc2)CCCCC1", 0.122]
]}

* * *

Item-by-item account of Activity
test system: NFS-60; assay: Induction of apoptosis in mouse NFS60 cells assessed as caspase 3/7 activity using DEVD aminoluciferin as substrate at IC50 after 24 hrs […] relative to control; assay type: functional
Endpoint: Activity

{"columns": ["Compound", "Endpoint", "Recorded value"],
 "data": [
  ["O=C(Cc1ccccc1)OC1(C(=O)Nc2ccc([N+](=O)[O-])cc2)CCCCC1", "Activity", "45.41%"],
  ["O=C(OC1(C(=O)Nc2ccc([N+](=O)[O-])cc2)CCCCC1)c1ccc([N+](=O)[O-])cc1", "Activity", "49.59%"],
  ["COc1cccc2c1C(=O)c1c(O)c3c(c(O)c1C2=O)C[C@@](O)(C(=O)CO)C[C@@H]3O[C@H]1C[C@H](N)[C@H](O)[C@H](C)O1", "Activity", "45.39%"],
  ["O=C(OC1(C(=O)Nc2ccc([N+](=O)[O-])cc2)CCCCC1)C(O)c1ccccc1 (centres undefined)", "Activity", "52.835%"]
]}

The measurements presented in this section are drawn from ChEMBL document CHEMBL4390662.
